Recorded values, source ChEMBL document CHEMBL2321693.

- MEASUREMENT_NOTES: Apparent solubility of the compound in fasted state simulated intestinal fluid at pH 6.5 by shake flask method relative to ciprofloxacin
- Assay type: physicochemical
- SETTINGS: simulated gi fluid

MOLECULE	fold change (FC)
CC(C)OC(=O)c1cn(C2CC2)c2cc(N3CCNCC3)c(F)cc2c1=O	0.5
CCCCOC(=O)c1cn(C2CC2)c2cc(N3CCNCC3)c(F)cc2c1=O	10
CCCOC(=O)c1cn(C2CC2)c2cc(N3CCNCC3)c(F)cc2c1=O	0.5
COC(=O)c1cn(C2CC2)c2cc(N3CCNCC3)c(F)cc2c1=O	111
CCOC(=O)c1cn(C2CC2)c2cc(N3CCNCC3)c(F)cc2c1=O [CIPROFLOXACIN ETHYL ESTER]	2
